Assay: Solubility of different salt types in biological vehicle (SGF, FeSSIF, FaSSIF), HPLC
Type: physicochemical
Details: FaSSIF, 37° C., 4 hours, supernatant
Decide using pH value: a value greater than or equal to 3 is t, a smaller one is f.

compound	category
Cc1cccc(-c2nn3c(c2-c2ccc4ncnn4c2/C=C/C(N)=O)CCC3)n1.Cl [Hydrochloride]	t
Cc1ccc(S(=O)(=O)O)cc1.Cc1cccc(-c2nn3c(c2-c2ccc4ncnn4c2/C=C/C(N)=O)CCC3)n1	t
Cc1cccc(-c2nn3c(c2-c2ccc4ncnn4c2/C=C/C(N)=O)CCC3)n1 [Compound of formula (I)]	t
Cc1cccc(-c2nn3c(c2-c2ccc4ncnn4c2/C=C/C(N)=O)CCC3)n1 [Sulphate]	f
CS(=O)(=O)O.Cc1cccc(-c2nn3c(c2-c2ccc4ncnn4c2/C=C/C(N)=O)CCC3)n1	t
